Catalogue of T/C values
System: L1210 leukemia ip in BDF1 mice, survival T/C
Assay: NCI In Vivo Anticancer Drug Screen. Data for tumor model L1210 Leukemia (intraperitoneal) in B6D2F1 (BDF1) mice
Conditions: endpoint: mean survival time; dose: 50.0 mg/kg/injection; schedule: Q01DX009 (ip); vehicle: saline with Tween-80; higher = longer survival
Inconclusive results and toxic doses are left out.

Below: 5 compounds and their reported T/C.
Compound: COc1ccc(OC)c(NC(=O)NNC(=O)CNC(=O)Nc2cccc(C)n2)c1
T/C: 94 % of control
--
Compound: COC(=O)c1ccc(OC(=O)Nc2ccccc2F)cc1
T/C: 119 % of control
--
Compound: CCOc1ccc(NC(=S)NC(=O)C(C)Oc2ccccc2)cc1 (stereo unspecified)
T/C: 102 % of control
--
Compound: O=C(Cc1cccc2ccccc12)N/N=C/c1ccccc1O
T/C: 93 % of control
--
Compound: OC(c1ccccc1)(c1ccccc1)c1ccsc1
T/C: 86 % of control

Now look at this entry.
IN: Param item = C[N+](C)(Cc1ccccc1)CC(O)COc1ccccc1 (stereo unspecified) ; retrieve measured T/C.
OUT: 102 % of control

* * *

Test system: L1210 leukemia ip in BDF1 mice, survival T/C
Test: NCI In Vivo Anticancer Drug Screen. Data for tumor model L1210 Leukemia (intraperitoneal) in B6D2F1 (BDF1) mice
Conditions: endpoint: mean survival time; dose: 200.0 mg/kg/injection; schedule: Q01DX001 (ip); vehicle: carboxymethylcellulose (CMC); higher = longer survival
Inconclusive results and toxic doses are left out.
Value type: T/C

Compound: CCOC(=O)Cc1c(C)c2c(O)cc(O)cc2oc1=O
Target desc: L1210 leukemia ip in BDF1 mice, survival T/C
Value: 89 % of control

Compound: O=[N+]([O-])c1cnc(/C=C/c2ccccc2)nc1
Target desc: L1210 leukemia ip in BDF1 mice, survival T/C
Value: 95 % of control

Compound: CC(=O)OCc1ccc(OC(C)=O)cn1
Target desc: L1210 leukemia ip in BDF1 mice, survival T/C
Value: 103 % of control

IN: Form entry - test system: L1210 leukemia ip in BDF1 mice, survival T/C; read-out: T/C; compound: Cc1cc([N+](=O)[O-])c(Cl)c([N+](=O)[O-])c1
OUT: 89 % of control

IN: Form entry - test system: L1210 leukemia ip in BDF1 mice, survival T/C; read-out: T/C; compound: CC(=O)Nc1ccc(Br)cc1
OUT: 93 % of control

IN: Form entry - test system: L1210 leukemia ip in BDF1 mice, survival T/C; read-out: T/C; compound: Cc1ccc2c(c1)C(=O)c1ccccc1C2=O
OUT: 91 % of control

IN: Form entry - test system: L1210 leukemia ip in BDF1 mice, survival T/C; read-out: T/C; compound: CN(N=O)c1ccc(/C=C2\C=Cc3ccccc32)cc1
OUT: 96 % of control

* * *

System: L1210 leukemia ip in BDF1 mice, survival T/C
Test: NCI In Vivo Anticancer Drug Screen. Data for tumor model L1210 Leukemia (intraperitoneal) in B6D2F1 (BDF1) mice
Conditions: endpoint: mean survival time; dose: 200.0 mg/kg/injection; schedule: Q01DX001 (ip); vehicle: saline; higher = longer survival
Toxic doses and inconclusive results are not listed.
Value type: T/C

Below: 6 compounds and their reported T/C.
Compound: CC(C)C(=O)C(C)(C)C
Target desc: L1210 leukemia ip in BDF1 mice, survival T/C
Value: 98 % of control

Compound: C[N+]1(C)C2CCC1C(CO)C(O)C2 (configuration not stated)
Target desc: L1210 leukemia ip in BDF1 mice, survival T/C
Value: 97 % of control

Compound: CCCNC(c1ccc(C=NC(CC)(CO)CO)cc1)C(Cl)(Cl)Cl (configuration not stated)
Target desc: L1210 leukemia ip in BDF1 mice, survival T/C
Value: 92 % of control

Compound: Cc1cc(=O)[nH]c(N2CCOCC2)n1
Target desc: L1210 leukemia ip in BDF1 mice, survival T/C
Value: 101 % of control

Compound: Cc1nnc2[nH]c(=O)[nH]c(=O)c2n1
Target desc: L1210 leukemia ip in BDF1 mice, survival T/C
Value: 101 % of control

Compound: O=c1[nH]c2ncccc2c(=O)n1OS(=O)(=O)c1ccccc1
Target desc: L1210 leukemia ip in BDF1 mice, survival T/C
Value: 93 % of control

Now look at this entry.
IN: Form entry - test system: L1210 leukemia ip in BDF1 mice, survival T/C; read-out: T/C; compound: CC(c1ccccc1)C(C)(C#N)c1ccccc1 (configuration not stated)
OUT: 100 % of control

Source: PubChem BioAssay AID248
